- test: Lactate dehydrogenase (LDH) release assay
- Assay type: cell-based
- conditions.used: LDH: Cytotoxicity assay: EC50
pEC50: −log10 of the molar value. Positions of bridges follow the written chain, without caps; N, C: chain ends. Non-standard residues stand in square brackets, D forms with d. Residues, ends and D or L forms follow the SMILES beside them. Lys(N3) = [N-]=[N+]=NCCCC[C@H](N)C(=O)O; R8 = C=CCCCCCC[C@@](C)(N)C(=O)O; Cba = N[C@@H](CC1CCC1)C(=O)O; S5 = C=CCCC[C@](C)(N)C(=O)O; βAla = NCCC(=O)O
Reported pEC50 values for the following compounds.

The following compounds have reported results that may help.
{"columns": ["compound", "pEC50"],
 "data": [
  ["CC(=O)N[C@@H](CCCCN=[N+]=[N-])C(=O)NCCC(=O)NCC(=O)N[C@H](C(=O)N[C@@H](Cc1ccccc1)C(=O)N[C@]1(C)CCCCCCC=CCCC[C@@](C)(C(=O)N[C@@H](CO)C(=O)N[C@@H](C)C(=O)N[C@@H](C)C(N)=O)NC(=O)[C@H](CC2CCC2)NC(=O)[C@H](CCC(N)=O)NC(=O)[C@H](C)NC(=O)[C@H](Cc2c[nH]c3ccccc23)NC(=O)[C@H](Cc2ccc(O)cc2)NC(=O)[C@H](CCC(=O)O)NC1=O)[C@@H](C)O [MP-261] (Ac-[Lys(N3)][βAla]GTF[R8]EYWAQ[Cba][S5]SAA-NH2; staple 6-13)", "< 4.30"],
  ["CC(=O)N[C@@H](CCCCN=[N+]=[N-])C(=O)NCCC(=O)N[C@H](C)C(=O)N[C@H](C(=O)N[C@@H](Cc1ccccc1)C(=O)N[C@]1(C)CCCCCCC=CCCC[C@@](C)(C(=O)N[C@@H](CO)C(=O)N[C@@H](C)C(=O)N[C@@H](C)C(N)=O)NC(=O)[C@H](CC2CCC2)NC(=O)[C@H](CCC(N)=O)NC(=O)[C@H](C)NC(=O)[C@H](Cc2c[nH]c3ccccc23)NC(=O)[C@H](Cc2ccc(O)cc2)NC(=O)[C@H](CCC(=O)O)NC1=O)[C@@H](C)O", "< 4.30"],
  ["CC(=O)N[C@@H](CCCCN=[N+]=[N-])C(=O)NCCC(=O)N[C@@H](CC(C)C)C(=O)N[C@H](C(=O)N[C@@H](Cc1ccccc1)C(=O)N[C@]1(C)CCCCCCC=CCCC[C@@](C)(C(=O)N[C@@H](CO)C(=O)N[C@@H](C)C(=O)N[C@@H](CCC(=O)O)C(N)=O)NC(=O)[C@H](CC2CCC2)NC(=O)[C@H](CCC(N)=O)NC(=O)[C@H](C)NC(=O)[C@H](Cc2c[nH]c3ccccc23)NC(=O)[C@H](Cc2ccc(O)cc2)NC(=O)[C@H](CCC(=O)O)NC1=O)[C@@H](C)O", "< 4.29"],
  ["CC(=O)N[C@@H](CC(C)C)C(=O)N[C@H](C(=O)N[C@@H](Cc1ccccc1)C(=O)N[C@]1(C)CCCCCCC=CCCC[C@@](C)(C(=O)N[C@@H](CO)C(=O)N[C@@H](C)C(=O)N[C@@H](C)C(N)=O)NC(=O)[C@H](CC2CCC2)NC(=O)[C@H](CC(C)C)NC(=O)[C@H](CCC(N)=O)NC(=O)[C@@H](Cc2c[nH]c3ccccc23)NC(=O)[C@H](Cc2ccc(O)cc2)NC(=O)[C@H](CCC(=O)O)NC1=O)[C@@H](C)O", 4.83]
]}

In: Would you mind telling me what pEC50 value was observed for CC(=O)N[C@@H](CCC(=O)O)C(=O)N[C@@H](CCCCN=[N+]=[N-])C(=O)NCCCCCC(=O)N[C@H](C(=O)N[C@@H](CO)C(=O)N[C@@H](Cc1ccccc1)C(=O)N[C@]1(C)CCCCCCC=CCCC[C@@](C)(C(N)=O)NC(=O)[C@H](CC(C)C)NC(=O)[C@H](CC(C)C)NC(=O)[C@H](C)NC(=O)[C@H](Cc2c[nH]c3ccccc23)NC(=O)[C@H](Cc2ccc(O)cc2)NC(=O)[C@H](CCC(=O)O)NC1=O)[C@@H](C)O ?
Out: < 4.30
